Attribution: patent US20250108036A1

- Test system: HMGN1
- Procedure Details: HMGN1 ELISA in culture medium of foreskin cells (Examples 10, 11; Tables 62, 63, 64)
- Type: cell-based, human
- Experimental Setup: Homo sapiens, 90 μM test compound, doxorubicin-treated foreskin cells, DMSO = 100
Exercise: state measured activity at 90 µM for each of the molecules provided.
Write it as a number; the unit % goes unstated.

So what does the record say about activity at 90 µM for Cc1ccc(Nc2nccc(N(C)c3ccc4c(C)n(C)nc4c3)n2)cc1S(N)(=O)=O [LX-3301, Pazopanib, reference compound] ? 228

// repeat for CCCCC/C=C\C/C=C\CCCCCCCC(=O)O and report 218

Try this molecule too: O=C(O)c1cc(/N=N/c2ccc(S(=O)(=O)Nc3ccccn3)cc2)ccc1O [LX-1302, Sulfasalazine, reference compound] 171

Same again, this time with C=C(C)[C@@H]1CC[C@]2(C(=O)O)CC[C@]3(C)[C@H](CC[C@@H]4[C@@]5(C)CC[C@H](O)C(C)(C)[C@@H]5CC[C@]43C)[C@@H]12 212

Now consider CCCCC/C=C\C/C=C\C/C=C\C/C=C\CCCC(=O)O . 194

Now try C[C@@H]1CC[C@H]2[C@@H](C)C(=O)O[C@@H]3O[C@@]4(C)CC[C@@H]1[C@]32OO4 [LX-506, Artemisinin, reference compound] . 169
